# pIC50 per entry
# assayedTarget: human ADAMTS-5 (Homo sapiens (Human))
# Sequence (Q9UNA0 262-930): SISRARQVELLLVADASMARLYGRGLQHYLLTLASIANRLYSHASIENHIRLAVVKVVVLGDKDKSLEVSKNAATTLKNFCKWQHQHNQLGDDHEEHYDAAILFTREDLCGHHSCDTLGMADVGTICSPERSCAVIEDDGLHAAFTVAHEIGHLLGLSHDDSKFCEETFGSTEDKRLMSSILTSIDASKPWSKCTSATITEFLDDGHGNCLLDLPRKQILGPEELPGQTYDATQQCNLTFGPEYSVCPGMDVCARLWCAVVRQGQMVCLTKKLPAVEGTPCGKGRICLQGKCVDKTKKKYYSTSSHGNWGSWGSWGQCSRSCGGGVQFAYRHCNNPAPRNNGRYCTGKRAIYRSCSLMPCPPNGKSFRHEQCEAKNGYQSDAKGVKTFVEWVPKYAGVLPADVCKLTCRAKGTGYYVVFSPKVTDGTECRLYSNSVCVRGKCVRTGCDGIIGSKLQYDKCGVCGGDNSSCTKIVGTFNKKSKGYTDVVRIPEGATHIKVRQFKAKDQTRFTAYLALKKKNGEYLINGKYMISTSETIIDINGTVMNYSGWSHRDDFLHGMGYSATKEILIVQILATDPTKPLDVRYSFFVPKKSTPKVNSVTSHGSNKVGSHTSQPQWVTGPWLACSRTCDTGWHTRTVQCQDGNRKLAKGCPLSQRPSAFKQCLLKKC
# conditionDescription: read-out: hADAMTS-5 potency IC50
pIC50 is a log-scale quantity: -log10 of the concentration expressed in molar.

Reference set (4 entries):
{"compound": "Cc1ccc(F)cc1N1CCN(C(=O)C(C)CC2(C)NC(=O)NC2=O)CC1 (stereo not drawn) [compound 175]", "measure": "pIC50", "assayResult": 7.60}
{"compound": "Cc1nc(C2(CCC(=O)N3CCN(c4cc(F)cc(F)c4)[C@@H](C)C3)NC(=O)NC2=O)c(C)o1 (stereo partly drawn) [compound 396]", "measure": "pIC50", "assayResult": 7.28}
{"compound": "CC(=O)N1CC(C2(CC(C)C(=O)N3CCN(c4ccc(F)c(F)c4)[C@@H](C)C3)NC(=O)NC2=O)C1 (stereo partly drawn) [compound 249]", "measure": "pIC50", "assayResult": 7.44}
{"compound": "CC(CC1(CCNC(=O)OC(C)(C)C)NC(=O)NC1=O)C(=O)N1CCN(c2ccc(F)c(F)c2)CC1 (stereo not drawn) [compound 235]", "measure": "pIC50", "assayResult": 7.80}

Consider the record given below.
Ask | Name the recorded pIC50 for CC(CC1(C)NC(=O)NC1=O)C(=O)N1CCN(c2cncc(F)c2)[C@@H](C)C1 (stereo partly drawn) [compound 277] .
Reply | 6.82
